system: Cannabinoid receptor 2 (Homo sapiens)
Sequence (P34972 whole entry): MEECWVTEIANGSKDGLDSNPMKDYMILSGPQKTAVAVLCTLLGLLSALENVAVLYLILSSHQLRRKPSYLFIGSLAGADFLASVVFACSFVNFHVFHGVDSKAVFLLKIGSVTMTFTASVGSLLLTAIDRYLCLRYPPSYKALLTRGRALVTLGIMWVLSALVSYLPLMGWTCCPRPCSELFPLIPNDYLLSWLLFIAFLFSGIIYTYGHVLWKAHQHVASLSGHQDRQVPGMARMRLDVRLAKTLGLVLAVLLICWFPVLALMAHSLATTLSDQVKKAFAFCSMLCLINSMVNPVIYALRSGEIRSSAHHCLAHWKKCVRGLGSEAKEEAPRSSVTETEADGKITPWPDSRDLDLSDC
experimental details: Inverse agonist activity at human CB2 receptor transfected in CHO cells assessed as increase in forksolin stimulated cAMP production at 1 uM by scintillation counting analysis relative to control
Format: functional, cell-based

chemical structure	Emax (%)
CCCCCn1cc(C(=O)NC23CC4CC(CC(C4)C2)C3)c(=O)n2nc(-c3ccccc3)nc12	53
CCCCCn1cc(C(=O)NC23CC4CC(CC(C4)C2)C3)c(=O)n2nc(-c3ccc(OC)cc3)nc12	53
CCCCCn1cc(C(=O)NC2CCCCC2)c(=O)n2nc(-c3ccc(C)cc3)nc12	53
CCCCCn1cc(C(=O)NC23CC4CC(CC(C4)C2)C3)c(=O)n2ncnc12	53
CCCCCn1cc(C(=O)NC23CC4CC(CC(C4)C2)C3)c(=O)n2nc(N(C)Cc3ccccc3)nc12	53
CCCCCn1cc(C(=O)NC2CCCCCC2)c(=O)n2nc(-c3ccc(C)cc3)nc12	53
CCCCCn1cc(C(=O)NC23CC4CC(CC(C4)C2)C3)c(=O)n2nc(SC)nc12	53
CCCCCn1cc(C(=O)NC23CC4CC(CC(C4)C2)C3)c(=O)n2nc(N3CCOCC3)nc12	53
CCCCCn1cc(C(=O)NC2CCCCC2)c(=O)n2nc(-c3ccccc3)nc12	53

###

Entries and their measured Emax follow.
system: UniProt:P34972
experimental details: Inverse agonist activity at human CB2 receptor transfected in CHO cells assessed as increase in forksolin stimulated cAMP production at 10 uM by scintillation counting analysis relative to control
Format: functional, cell-based

chemical structure	unit descriptor	Emax
CCCCCn1cc(C(=O)NC23CC4CC(CC(C4)C2)C3)c(=O)n2nc(-c3ccc(C)cc3)nc12	%	256
CCCCCn1cc(C(=O)NC23CC4CC(CC(C4)C2)C3)c(=O)n2nc(C)nc12	%	132
CCCCCn1cc(C(=O)NC23CC4CC(CC(C4)C2)C3)c(=O)n2nc(N(C)Cc3ccccc3)nc12	%	132
CCCCCn1cc(C(=O)NC23CC4CC(C)(CC(C)(C4)C2)C3)c(=O)n2nc(-c3ccccc3)nc12	%	243
CCCCCn1cc(C(=O)NC2CCCCCC2)c(=O)n2nc(-c3ccc(C)cc3)nc12	%	132
CCCCCn1cc(C(=O)NC23CC4CC(CC(C4)C2)C3)c(=O)n2nc(SC)nc12	%	132
CCCCCn1cc(C(=O)NC23CC4CC(CC(C4)C2)C3)c(=O)n2ncnc12	%	132
CCCCCn1cc(C(=O)NC23CC4CC(CC(C4)C2)C3)c(=O)n2nc(-c3ccc(Cl)cc3)nc12	%	223
CCCCCn1cc(C(=O)NC23CC4CC(C)(CC(C)(C4)C2)C3)c(=O)n2ncnc12	%	132
CCCCCn1cc(C(=O)NC2CCCCC2)c(=O)n2nc(-c3ccccc3)nc12	%	132
Cc1c(C(=O)c2cccc3ccccc23)c2cccc3c2n1[C@H](CN1CCOCC1)CO3	%	132
CCCCCn1cc(C(=O)NC2CCCCC2)c(=O)n2nc(-c3ccc(C)cc3)nc12	%	132
CCCCCn1cc(C(=O)NC23CC4CC(CC(C4)C2)C3)c(=O)n2nc(-c3ccc(OC)cc3)nc12	%	132
CCCCCn1cc(C(=O)NC23CC4CC(CC(C4)C2)C3)c(=O)n2nc(N3CCOCC3)nc12	%	132
CCCCCn1cc(C(=O)NC2CCCCCC2)c(=O)n2nc(-c3ccccc3)nc12	%	132
CCCCCn1cc(C(=O)NC23CC4CC(CC(C4)C2)C3)c(=O)n2nc(-c3ccco3)nc12	%	132
CCCCCn1cc(C(=O)NC23CC4CC(CC(C4)C2)C3)c(=O)n2nc(-c3ccccc3)nc12	%	132

These entries and their values trace back to ChEMBL document CHEMBL3774386.
